Experiment: amyloid nucleation score (Sup35N fusion, yeast selection) (log enrichment); library NNK2; higher = more nucleation; inactive = no reads after selection;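 also: zero at mode of non-aggregating sequences after 7 days selection at 30°C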
ASSAY_METRIC: amyloid nucleation score
Lab note: record the figure alone, no unit after it.

Could you share which amyloid nucleation score value was measured for LCMKYGVCVYVLFGWCKYTV ?
-0.068

Returns the measured amyloid nucleation score for the input substance. Input: VDRMVDIMCTTKKMIHAF
1.45

Which value of amyloid nucleation score has been reported for DEGVPSGYVTAL in the records?
-0.354

What does the data say about its amyloid nucleation score? Entry: YRVFMVPTWGGS
0.381

What value of amyloid nucleation score has been recorded for this entry: VKNFYVNIFQCGIPPPFKEM
7.67

Dear colleague, I am looking for the recorded amyloid nucleation score of the following substance: PLIYLSSFYIDCHLWSSFGV
6.81

Fill blank: measured amyloid nucleation score of the substance SWLFRYYVERVNDVRG is ____.
0.191

What measured amyloid nucleation score goes with KQLRSSVSSSYYHGNTVCAE ?
0.794

Find the recorded amyloid nucleation score belonging to GTCLSFYEFNSWWIIKMFSK and report it.
0.657

Value lookup for amyloid nucleation score; key = AKVCFFKHESPMGQVGAY
-1.2

Which amyloid nucleation score value belongs to SVVGFTPQKL ?
-0.049

// returns reported amyloid nucleation score for input VSSLFIEDFFFNRTSVMYIG
0.103

Give its amyloid nucleation score value. Item: QWNMRAAQCTTNS
0.722

Any idea what its amyloid nucleation score is? The substance is ASITYNACLKPLQM
0.313

Looking for the measured amyloid nucleation score of MVCKLTFRRRCPMNRSRHQV , can you help?
0.469

Give its amyloid nucleation score value. Item: PRRVDRW
0.339

Form field: reported amyloid nucleation score of ACKVYKLAMNIVLGGTGWSD
4.8

Returns the measured amyloid nucleation score for the input substance. Input: YFGGLANKMLILSWR
0.294

Name the reported amyloid nucleation score value associated with the substance RMWCLGLDPLYTENKGSSDA
-0.427

Look up amyloid nucleation score: LNCTYN
-0.311

Given the substance VTALDMFVLSWGCGWGMN , what is its reported amyloid nucleation score?
3.06

GET /values?readout=amyloid nucleation score&item= NIYLFMLMWDWTSYMALCCV
3.94

Which amyloid nucleation score value belongs to VAVVFTKYSSRTYLGVGSVG ?
4.21

# input substance: FVYTLAYNRRWYSRAVSFES ; wanted: its amyloid nucleation score
-0.461

Fill in the blank: the reported amyloid nucleation score of AMYIIAFSPTK is ____.
1.36

Suppose we examine the substance LFWELEM ; what amyloid nucleation score value has been reported?
4.7

Endpoint output: amyloid nucleation score of AYLFHLFIIS . Value?
-0.017

Which amyloid nucleation score reading was recorded for the substance YMVGVSITMCCRATLNFSSM ?
5.21

Entry under review: AALNDNTSL . Reported amyloid nucleation score?
5.71

Recorded amyloid nucleation score of GMVVFVI , please.
0.21

// amyloid nucleation score lookup, key: WMNFCPDVGHANGGVPNRLG
0.583

Which measured amyloid nucleation score value corresponds to LFQLGASTR ?
0.147

# input substance: VRWAKNNRMTLYLKITLRAK ; wanted: its amyloid nucleation score
-0.951

For the substance shown here, RGTVVTGF , give the reported amyloid nucleation score.
1.3

Returns the measured amyloid nucleation score for the input substance. Input: ISLHILCCRSMF
8.62

amyloid nucleation score lookup needed for KPCSGIRVCIDLCYPP , thanks.
0.383

What value of amyloid nucleation score has been recorded for this entry: RVYIFTCYGSSV
8

amyloid nucleation score for IVNMMIAANLACAMWSNCKQ ?
9.27
